- tested_target: UniProt P00533
- assay: Kinase inhibitory activity against human EGFR (native sequence)
- Type: biochemical
- reported_conditions: human EGFR native sequence; 10 μM ATP; read-out: IC50 for kinase inhibition, EGFR
pIC50: −log10 of the molar value.
// reported pIC50 per item

C=CC(=O)Nc1cc(Nc2ncc(Cl)c(Nc3ccccc3P(C)(C)=O)n2)c(OC)cc1OCCN1CCOCC1    > 7.30

Challenge: Dear colleague, please send me the reported pIC50 for COc1cc(F)c(NC(=O)C#CC(C)(C)N2CCCC2)cc1Nc1ncc(Cl)c(Nc2ccccc2P(C)(C)=O)n1 when you can.
Response given: > 7.30

Challenge: Dear colleague, please send me the reported pIC50 for C=CC(=O)Nc1cc(Nc2ncc(Cl)c(Nc3ccccc3P(C)(C)=O)n2)c(OC)cc1N1CCC(N2CCN(CCO)CC2)C1 (stereo not drawn) when you can.
Response given: > 7.30

Challenge: Dear colleague, please send me the reported pIC50 for C=CC(=O)Nc1cc(Nc2ncc(Cl)c(Nc3ccccc3P(C)(C)=O)n2)c(OC)cc1N1CCC(N2CCN(C)CC2)CC1 when you can.
Response given: > 7.30

Challenge: Dear colleague, please send me the reported pIC50 for COc1ccc(NC(=O)/C=C/CN2CCCC2)cc1Nc1ncc(Cl)c(Nc2ccccc2P(C)(C)=O)n1 when you can.
Response given: ≤ 6.60

Challenge: Dear colleague, please send me the reported pIC50 for C=CC(=O)Nc1cc(Nc2ncc(Cl)c(Nc3ccccc3P(C)(C)=O)n2)c(OC)cc1OCCN1CCN(C)CC1 when you can.
Response given: 6.60 to 7.00

###

- tested_target: human EGFR (native sequence) (Homo sapiens)
- Sequence (P00533 25-1210): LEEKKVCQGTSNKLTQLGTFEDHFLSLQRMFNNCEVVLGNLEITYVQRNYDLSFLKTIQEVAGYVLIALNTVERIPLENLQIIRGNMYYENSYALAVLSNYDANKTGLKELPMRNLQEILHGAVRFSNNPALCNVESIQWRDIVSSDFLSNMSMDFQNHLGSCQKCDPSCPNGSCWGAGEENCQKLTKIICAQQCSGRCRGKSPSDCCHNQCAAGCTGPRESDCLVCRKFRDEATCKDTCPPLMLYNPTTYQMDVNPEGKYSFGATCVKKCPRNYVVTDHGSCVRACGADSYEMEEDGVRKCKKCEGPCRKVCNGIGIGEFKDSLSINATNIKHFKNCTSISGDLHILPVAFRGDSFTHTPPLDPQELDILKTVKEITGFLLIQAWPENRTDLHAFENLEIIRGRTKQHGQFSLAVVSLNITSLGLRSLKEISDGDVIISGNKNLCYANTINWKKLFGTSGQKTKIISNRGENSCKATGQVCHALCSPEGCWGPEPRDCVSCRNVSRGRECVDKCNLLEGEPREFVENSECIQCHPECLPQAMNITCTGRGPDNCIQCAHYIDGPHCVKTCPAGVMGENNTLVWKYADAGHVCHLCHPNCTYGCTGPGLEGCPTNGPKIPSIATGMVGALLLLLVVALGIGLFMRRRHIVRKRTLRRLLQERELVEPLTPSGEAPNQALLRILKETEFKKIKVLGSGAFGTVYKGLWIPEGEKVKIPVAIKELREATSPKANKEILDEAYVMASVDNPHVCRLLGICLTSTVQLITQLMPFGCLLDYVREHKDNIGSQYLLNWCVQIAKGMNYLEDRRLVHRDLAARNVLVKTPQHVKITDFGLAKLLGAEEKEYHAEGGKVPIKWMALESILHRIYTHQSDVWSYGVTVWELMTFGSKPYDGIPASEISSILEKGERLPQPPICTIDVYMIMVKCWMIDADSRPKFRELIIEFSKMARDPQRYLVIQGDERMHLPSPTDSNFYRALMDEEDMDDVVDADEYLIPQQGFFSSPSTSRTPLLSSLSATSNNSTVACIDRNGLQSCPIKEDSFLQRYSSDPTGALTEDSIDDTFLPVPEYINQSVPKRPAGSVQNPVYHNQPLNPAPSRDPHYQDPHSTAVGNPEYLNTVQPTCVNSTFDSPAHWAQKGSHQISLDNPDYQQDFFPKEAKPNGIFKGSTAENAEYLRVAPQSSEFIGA
- assay: Kinase inhibitory activity against human EGFR (native sequence)
- Type: biochemical
- reported_conditions: 10 pt curves, 3 μM top concentration, 10 μM ATP; read-out: IC50 for kinase inhibition, EGFR
endpoint: IC50

Field: example entries. Status: answers known.
CNC(=O)/C=C/C(=O)Nc1ccc(OC)c(Nc2ncc(Cl)c(Nc3ccccc3P(C)(C)=O)n2)c1 [Example 109]    ≥ 250 nM
C=CC(=O)Nc1ccc(OC)c(Nc2ncc(C#N)c(Nc3ccccc3P(C)(C)=O)n2)c1 [Example 139]    < 50 nM
COc1ccc(NC(=O)CCl)cc1Nc1ncc(C)c(Nc2ccccc2P(C)(C)=O)n1 [Example 141]    < 50 nM

# evaluate next
Challenge: Dear colleague, please send me the reported IC50 for C=C(C)C(=O)Nc1cc(Nc2ncc(Cl)c(Nc3ccccc3P(C)(C)=O)n2)c(OC)cc1N1CC[C@@H](N(C)C)C1 (racemic) [Example 113] when you can.
Response given: 101 to 250 nM

###

- tested_target: BaF3 cells expressing the target EGFR mutations (Homo sapiens, UniProt P00533, T790M, cells depend on it, form not given)
- Construct: IC50, BAF3 EGFR DEL T790M PURO POOL; other: BAF3 EGFR DEL T790M PURO POOL cells, MTT; other: BAF3 EGFR DEL T790M PURO POOL cells; MTT
- Sequence (P00533 with tags, fused parts or gaps DEL746-750/T790M, form open): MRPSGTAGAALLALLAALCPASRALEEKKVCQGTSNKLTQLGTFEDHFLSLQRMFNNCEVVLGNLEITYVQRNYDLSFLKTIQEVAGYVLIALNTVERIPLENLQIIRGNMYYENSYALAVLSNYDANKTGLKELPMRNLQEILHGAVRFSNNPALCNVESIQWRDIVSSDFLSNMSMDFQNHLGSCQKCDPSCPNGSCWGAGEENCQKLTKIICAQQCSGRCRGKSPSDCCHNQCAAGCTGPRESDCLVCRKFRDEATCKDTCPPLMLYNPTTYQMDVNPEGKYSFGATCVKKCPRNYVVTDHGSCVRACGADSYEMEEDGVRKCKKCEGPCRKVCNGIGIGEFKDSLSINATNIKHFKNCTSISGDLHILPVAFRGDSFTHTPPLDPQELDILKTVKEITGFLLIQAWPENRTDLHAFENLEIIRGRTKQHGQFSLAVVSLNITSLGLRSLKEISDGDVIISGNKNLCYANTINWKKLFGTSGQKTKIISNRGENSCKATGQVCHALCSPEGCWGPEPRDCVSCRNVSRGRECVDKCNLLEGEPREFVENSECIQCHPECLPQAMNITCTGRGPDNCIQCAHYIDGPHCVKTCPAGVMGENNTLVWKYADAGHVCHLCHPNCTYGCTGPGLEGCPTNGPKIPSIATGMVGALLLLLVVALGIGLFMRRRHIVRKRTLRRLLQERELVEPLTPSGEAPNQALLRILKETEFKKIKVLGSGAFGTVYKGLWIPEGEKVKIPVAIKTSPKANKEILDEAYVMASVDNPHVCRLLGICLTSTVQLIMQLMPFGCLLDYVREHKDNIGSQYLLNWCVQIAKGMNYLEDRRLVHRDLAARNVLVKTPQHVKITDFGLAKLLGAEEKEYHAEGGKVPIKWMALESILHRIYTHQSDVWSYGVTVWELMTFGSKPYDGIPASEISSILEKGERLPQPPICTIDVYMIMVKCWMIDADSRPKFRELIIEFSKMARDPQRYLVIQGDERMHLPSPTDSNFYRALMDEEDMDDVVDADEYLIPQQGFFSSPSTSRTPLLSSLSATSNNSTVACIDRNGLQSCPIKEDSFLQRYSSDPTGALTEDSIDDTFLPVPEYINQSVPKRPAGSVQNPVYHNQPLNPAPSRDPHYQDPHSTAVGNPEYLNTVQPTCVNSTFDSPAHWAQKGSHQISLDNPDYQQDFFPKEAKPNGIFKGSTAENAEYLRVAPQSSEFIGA
- assay: Antiproliferative activity (MTT) against BaF3 cells expressing the target EGFR mutations
- Type: cell-based
- reported_conditions: BAF3 EGFR DEL T790M PURO POOL cells, read-out: IC50, BAF3 EGFR DEL T790M PURO POOL
endpoint: GI50

Field: example entries. Status: answers known.
COc1cc(F)c(NC(=O)C#CCN2CCCC2)cc1Nc1ncc(Cl)c(Nc2ccccc2P(C)(C)=O)n1    < 50 nM
C=CC(=O)Nc1cc(Nc2ncc(Cl)c(Nc3ccccc3P(C)(C)=O)n2)c(Cl)cc1OC(COC)CN(C)C (centres unmarked) [Example 146]    < 50 nM
COCC#CC(=O)Nc1cc(Nc2ncc(Cl)c(Nc3ccccc3P(C)(C)=O)n2)c(OC)cc1N1CCOCC1    < 50 nM
C=CC(=O)Nc1cc(Nc2ncc(Cl)c(Nc3ccccc3P(C)(C)=O)n2)c(OC)cc1OCCN1CCOCC1    50 to 100 nM

# evaluate next
Challenge: Dear colleague, please send me the reported GI50 for COc1ccc(NC(=O)/C=C/C(=O)N2CCN(C)CC2)cc1Nc1ncc(Cl)c(Nc2ccccc2P(C)(C)=O)n1 when you can.
Response given: 101 to 250 nM

###

- tested_target: BaF3 cells expressing the target EGFR mutations (Homo sapiens, UniProt P00533, T790M, cells depend on it, form not given)
- Construct: IC50, BAF3 EGFR DEL T790M PURO POOL; other: BAF3 EGFR DEL T790M PURO POOL cells, MTT; other: BAF3 EGFR DEL T790M PURO POOL cells; MTT
- assay: Antiproliferative activity (MTT) against BaF3 cells expressing the target EGFR mutations
- Format: cell-based
- reported_conditions: BAF3 EGFR DEL T790M PURO POOL cells, read-out: IC50, BAF3 EGFR DEL T790M PURO POOL
- Procedure: We also assessed the antiproliferative activity of compounds of Formula (I) against BaF3 cells expressing the target EGFR mutations or control (i.e., cell lines expressing wildtype EGFR). Assays were conducted using MTT.
// reported GI50 per item

Challenge: Dear colleague, please send me the reported GI50 for COc1ccc(NC(=O)/C=C/C(=O)NCCN(C)C)cc1Nc1ncc(Cl)c(Nc2ccccc2P(C)(C)=O)n1 when you can.
Response given: ≥ 250 nM

Challenge: Dear colleague, please send me the reported GI50 for C=CC(=O)Nc1ccc(OC2COC2)c(Nc2ncc(Cl)c(Nc3ccccc3P(C)(C)=O)n2)c1 when you can.
Response given: ≥ 250 nM

Challenge: Dear colleague, please send me the reported GI50 for C=CC(=O)Nc1cc(Nc2ncc(Cl)c(Nc3ccccc3P(C)(C)=O)n2)c(OC)cc1C#CC(C)(C)N(C)C when you can.
Response given: < 50 nM

Challenge: Dear colleague, please send me the reported GI50 for COc1ccc(NS(=O)(=O)CCl)cc1Nc1ncc(Cl)c(Nc2ccccc2P(C)(C)=O)n1 when you can.
Response given: ≥ 250 nM

Challenge: Dear colleague, please send me the reported GI50 for COc1ccc(NC(=O)CCl)cc1Nc1ncc(C)c(Nc2ccccc2P(C)(C)=O)n1 when you can.
Response given: < 50 nM

###

- tested_target: BaF3 cells expressing the target EGFR mutations (Homo sapiens, UniProt P00533, T790M/L858R, cells depend on it)
- Construct: IC50, BAF3 EGFR L858R-T790M PURO POOL; other: BAF3 EGFR L858R-T790M PURO POOL cells, MTT; IC50, BAF3 EGFR L858R-T790M PURO POOL; other: BAF3 EGFR L858R-T790M PURO POOL cells; MTT
- Sequence (P00533 whole entry T790M/L858R): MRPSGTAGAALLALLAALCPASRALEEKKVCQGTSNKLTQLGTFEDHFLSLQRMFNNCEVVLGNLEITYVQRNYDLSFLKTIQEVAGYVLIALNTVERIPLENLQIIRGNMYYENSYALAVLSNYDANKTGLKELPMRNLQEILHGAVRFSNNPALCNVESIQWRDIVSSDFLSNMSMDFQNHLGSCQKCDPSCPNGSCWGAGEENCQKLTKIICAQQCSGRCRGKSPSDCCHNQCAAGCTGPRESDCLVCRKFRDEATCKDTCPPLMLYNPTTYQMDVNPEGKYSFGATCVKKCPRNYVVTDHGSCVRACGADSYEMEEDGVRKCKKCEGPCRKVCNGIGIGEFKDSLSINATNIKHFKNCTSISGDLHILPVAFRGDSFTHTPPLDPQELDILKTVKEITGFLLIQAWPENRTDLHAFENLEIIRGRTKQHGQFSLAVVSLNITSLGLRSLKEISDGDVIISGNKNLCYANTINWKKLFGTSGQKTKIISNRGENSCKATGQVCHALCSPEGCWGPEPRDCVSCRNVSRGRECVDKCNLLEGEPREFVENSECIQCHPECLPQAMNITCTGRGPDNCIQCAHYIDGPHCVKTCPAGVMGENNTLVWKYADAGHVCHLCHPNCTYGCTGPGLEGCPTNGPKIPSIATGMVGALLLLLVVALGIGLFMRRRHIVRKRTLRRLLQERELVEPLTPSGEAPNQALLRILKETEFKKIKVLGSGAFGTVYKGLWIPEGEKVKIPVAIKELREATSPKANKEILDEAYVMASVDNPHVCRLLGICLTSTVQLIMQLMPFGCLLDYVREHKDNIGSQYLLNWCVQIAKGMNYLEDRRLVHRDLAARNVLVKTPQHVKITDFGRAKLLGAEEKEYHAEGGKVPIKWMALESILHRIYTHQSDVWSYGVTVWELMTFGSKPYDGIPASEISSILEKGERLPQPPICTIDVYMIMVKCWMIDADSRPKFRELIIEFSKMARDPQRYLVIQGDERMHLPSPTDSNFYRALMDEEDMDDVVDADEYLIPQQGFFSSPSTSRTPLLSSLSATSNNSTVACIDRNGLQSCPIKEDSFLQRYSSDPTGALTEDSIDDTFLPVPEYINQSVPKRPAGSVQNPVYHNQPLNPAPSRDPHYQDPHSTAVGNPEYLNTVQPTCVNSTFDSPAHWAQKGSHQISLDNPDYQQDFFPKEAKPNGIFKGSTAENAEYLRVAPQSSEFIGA
- assay: Antiproliferative activity (MTT) against BaF3 cells expressing the target EGFR mutations
- Type: cell-based
- reported_conditions: BAF3 EGFR L858R-T790M PURO POOL cells, read-out: IC50, BAF3 EGFR L858R-T790M PURO POOL
endpoint: GI50

C=C(CN1CCCC1)C(=O)Nc1ccc(OC)c(Nc2ncc(Cl)c(Nc3ccccc3P(C)(C)=O)n2)c1 [Example 42]    < 50 nM

Challenge: Dear colleague, please send me the reported GI50 for C=CC(=O)Nc1cc(Nc2ncc(Cl)c(Nc3ccc(OCCN4CCCC4)cc3P(C)(C)=O)n2)c(OC)cc1F [Example 98] when you can.
Response given: < 50 nM

Challenge: Dear colleague, please send me the reported GI50 for C=C(F)C(=O)Nc1ccc(OC)c(Nc2ncc(Cl)c(Nc3ccccc3P(C)(C)=O)n2)c1 [Example 77] when you can.
Response given: 50 to 100 nM

###

- tested_target: BaF3 cells expressing the target EGFR mutations (Homo sapiens, UniProt P00533, T790M/L858R, cells depend on it)
- Construct: IC50, BAF3 EGFR L858R-T790M PURO POOL; other: BAF3 EGFR L858R-T790M PURO POOL cells, MTT; IC50, BAF3 EGFR L858R-T790M PURO POOL; other: BAF3 EGFR L858R-T790M PURO POOL cells; MTT
- assay: Antiproliferative activity (MTT) against BaF3 cells expressing the target EGFR mutations
- Format: cell-based
- reported_conditions: BAF3 EGFR L858R-T790M PURO POOL cells, read-out: IC50, BAF3 EGFR L858R-T790M PURO POOL
// reported GI50 per item

Field: example entries. Status: answers known.
C=CC(=O)Nc1cc(Nc2ncc(Cl)c(Nc3ccccc3P(C)(C)=O)n2)c(OC)cc1C#CCN(C)C1CCCC1    < 0.05 µM
C=CC(=O)Nc1cc(Nc2ncc(Cl)c(Nc3ccccc3P(C)(C)=O)n2)c(OC)cc1C#CC1(N(C)C)CC1    0.101 to 0.25 µM
C=CC(=O)Nc1cc(Nc2ncc(Cl)c(Nc3ccccc3P(C)(C)=O)n2)c(OC)cc1N1CCC(N(C)CCN(CC)CC)C1 (stereo not shown)    0.101 to 0.25 µM
C=C(CN1CCOCC1)C(=O)Nc1ccc(OC)c(Nc2ncc(Cl)c(Nc3ccccc3P(C)(C)=O)n2)c1    < 0.05 µM

Challenge: Dear colleague, please send me the reported GI50 for C=CC(=O)Nc1ccc(F)c(Nc2ncc(Cl)c(Nc3ccccc3P(C)(C)=O)n2)c1 when you can.
Response given: < 0.05 µM

Challenge: Dear colleague, please send me the reported GI50 for C=CC(=O)Nc1cc(Nc2ncc(Cl)c(Nc3ccccc3P(C)(C)=O)n2)c(OC)cc1OCC1CCN(C)CC1 when you can.
Response given: ≥ 0.25 µM

Challenge: Dear colleague, please send me the reported GI50 for C=CC(=O)Nc1cc(Nc2ncc(Cl)c(Nc3ccccc3P(C)(C)=O)n2)c(OC)cc1N1CCCC(N(C)C)C1 (stereo not shown) when you can.
Response given: < 0.05 µM

Challenge: Dear colleague, please send me the reported GI50 for C=C(CN1CCN(C)CC1)C(=O)Nc1ccc(OC)c(Nc2ncc(Cl)c(Nc3ccccc3P(C)(C)=O)n2)c1 when you can.
Response given: < 0.05 µM

Challenge: Dear colleague, please send me the reported GI50 for C=CC(=O)Nc1cc(Nc2ncc(Cl)c(Nc3ccccc3P(C)(C)=O)n2)c(OC)cc1N1CCN(C2CCN(C)CC2)CC1 when you can.
Response given: 0.101 to 0.25 µM

Challenge: Dear colleague, please send me the reported GI50 for C=CC(=O)Nc1ccc(OC(F)(F)F)c(Nc2ncc(Cl)c(Nc3ccccc3P(C)(C)=O)n2)c1 when you can.
Response given: < 0.05 µM

Challenge: Dear colleague, please send me the reported GI50 for COc1ccc(NC(=O)/C=C/C(=O)NCCN(C)C)cc1Nc1ncc(Cl)c(Nc2ccccc2P(C)(C)=O)n1 when you can.
Response given: ≥ 0.25 µM

Challenge: Dear colleague, please send me the reported GI50 for COc1ccc(NC(=O)C#CCN(C)C)cc1Nc1ncc(Cl)c(Nc2ccccc2P(C)(C)=O)n1 when you can.
Response given: < 0.05 µM

Challenge: Dear colleague, please send me the reported GI50 for C=CC(=O)Nc1ccc(OCCN(C)C)c(Nc2ncc(Cl)c(Nc3ccccc3P(C)(C)=O)n2)c1 when you can.
Response given: ≥ 0.25 µM

Challenge: Dear colleague, please send me the reported GI50 for C=CC(=O)Nc1cc(Nc2ncc(Cl)c(Nc3ccccc3P(C)(C)=O)n2)c(OC)cc1C#CCN(C(C)C)C(C)C when you can.
Response given: < 0.05 µM

Challenge: Dear colleague, please send me the reported GI50 for C=CC(=O)Nc1cc(Nc2ncc(Cl)c(Nc3ccccc3P(C)(C)=O)n2)c(OC)cc1C#CC(C)(C)N(C)C when you can.
Response given: < 0.05 µM

Challenge: Dear colleague, please send me the reported GI50 for C=C(C(=O)Nc1ccc(OC)c(Nc2ncc(Cl)c(Nc3ccccc3P(C)(C)=O)n2)c1)C(F)(F)F when you can.
Response given: ≥ 0.25 µM

Challenge: Dear colleague, please send me the reported GI50 for C=CC(=O)Nc1ccc(OC2COC2)c(Nc2ncc(Cl)c(Nc3ccccc3P(C)(C)=O)n2)c1 when you can.
Response given: ≥ 0.25 µM

Challenge: Dear colleague, please send me the reported GI50 for C=CC(=O)Nc1cc(Nc2ncc(Cl)c(Nc3ccccc3P(C)(C)=O)n2)c(OC)cc1OC1CCCN(CCOC)C1 (stereo not shown) when you can.
Response given: < 0.05 µM

Challenge: Dear colleague, please send me the reported GI50 for C=CC(=O)Nc1cc(Nc2ncc(Cl)c(Nc3ccccc3P(C)(C)=O)n2)c(OC)cc1OCCN1CCCCC1 when you can.
Response given: < 0.05 µM

Challenge: Dear colleague, please send me the reported GI50 for C=CC(=O)Nc1cc(Nc2ncc(Cl)c(Nc3ccccc3P(C)(C)=O)n2)c(OC)cc1N(C)CCN(C)CCF when you can.
Response given: < 0.05 µM
